- Tested on: HEK-293T
- TEST METHOD NOTES: Incucyte cell viability with HEK293T; also: unitless GR value; below 1 slowed growth and below 0 cell loss
- Format: toxicity, cell-based
- PARTICULARS: human, 12 h, 10 µM, compound concentration 10 uM, replicate number 1
VALUE KIND: Growth Rate
Form field (numeric): enter value without unit.

| MOLECULE | Growth Rate |
| --- | --- |
| Clc1cccc(Nc2nccc(NCCCN3CCOCC3)n2)c1 | 0.34 |

Proceed to the following item.
### Prompt // query Growth Rate value for entry CN1CCN(C(=O)Cc2ccc(N/C(=C3\C(=O)Nc4cc(Cl)ccc43)c3ccccc3)cc2)CC1
### Response 0.71

###

- System: U2OS
- TEST METHOD NOTES: Incucyte cell viability with U2OS; also: unitless GR value; below 1 slowed growth and below 0 cell loss
- Assay type: toxicity, cell-based
- PARTICULARS: human, 24 h, 10 µM, compound concentration 10 uM, replicate number 2
Record TRUE whenever Growth Rate is at 0.8 or higher; record FALSE when lower.

### Prompt Quick check, Growth Rate >= 0.8? CN1CC(=O)N(C)c2cnc(Nc3ccc(NC(=O)Nc4cccc(C(=O)O)c4)cc3)nc21
### Response TRUE

### Prompt Confirm if Growth Rate reported for the molecule C[C@H](C[C@H](N)C(=O)O)C(=O)O [2S,4R-4-METHYLGLUTAMATE] is 0.8 or above.
### Response TRUE

### Prompt Does CC(C)(O)[C@H](F)CN1Cc2cc(NC(=O)c3cnn4cccnc34)c(N3CCOCC3)cc2C1=O have a reported Growth Rate of at least 0.8?
### Response TRUE

### Prompt # bool: Growth Rate of Cn1c2ccccc2c2c3c(c4c5ccccc5n(CCC#N)c4c21)CNC3=O >= 0.8
### Response FALSE

### Prompt Could you please find out whether CN[C@@H]1CC[C@@H](c2ccc(Cl)c(Cl)c2)c2ccccc21.Cl has Growth Rate that meets 0.8 or exceeds it?
### Response FALSE

###

- System: Fibroblast
- TEST METHOD NOTES: Incucyte cell viability with human fibroblast; also: unitless GR value; below 1 slowed growth and below 0 cell loss
- Type: toxicity, cell-based
- PARTICULARS: 24 h, 10 µM, compound concentration 10 uM, replicate number 2
Grouping rule (Growth Rate): low bracket = under 0.6, middle bracket = from 0.6 up to 0.9, high bracket = 0.9 and over

Record excerpt, results attached:
| MOLECULE | LABEL VALUE |
| --- | --- |
| O=S(=O)(Nc1nnc2cc(OCC34CC5CC(CC(C5)C3)C4)c(C3CC3)cn12)C1CC1 | middle bracket |
| Cn1ncnc1COc1nn2c(-c3cc(F)ccc3F)nnc2cc1C(C)(C)C | low bracket |
| CNc1ncc2cc(-c3ccc(-c4ncccc4F)cc3Cl)c(=O)n(C[C@H]3OC[C@H](N)CO3)c2n1 | middle bracket |
| Cc1nsc(Nc2cnc(C(F)(F)F)cn2)c1C(=O)Nc1ccc(O[C@H]2CCCN(CC(F)(F)F)C2)nc1 | low bracket |
| CCCCC/C=C/C=C1/C(=O)C=C[C@@H]1C/C=C\CCCC(=O)O | middle bracket |

### Prompt Lab note: sort CNc1nc(-c2ccc3c(N)n[nH]c3c2)cc(N2C[C@@H](C(=O)NC3CCCCC3)CC[C@H]2C)n1 into the matching Growth Rate band.
### Response middle bracket

### Prompt Using the reported Growth Rate, which band applies to CSc1ccc(C(=O)/C=C/c2cc(C)c(OC(C)(C)C(=O)O)c(C)c2)cc1 [ELAFIBRANOR] ?
### Response middle bracket

### Prompt Record N[C@@H](Cn1cc(F)c(=O)[nH]c1=O)C(=O)O — which class?
### Response high bracket

### Prompt Form field 'band' for COc1c(OCCCN2CCOCC2)ccc2c1N=C(NC(=O)c1cnc(N)nc1)N1CCN=C21 [COPANLISIB]
### Response low bracket

### Prompt Hi there! Could you help me figure out the category for Fc1cccc(-n2cnc3c(NCc4nc5ccc(F)c(F)c5[nH]4)nc(N4CCOCC4)nc32)c1 please?
### Response low bracket
